Give NanoBRET Abs IC50 for every item shown.
tested-on: T1, B-cat-Halo (beta-catenin HaloTag construct expressed in HEK293 cells) (UniProt P35222 1-781)
T1 sequence (looked up): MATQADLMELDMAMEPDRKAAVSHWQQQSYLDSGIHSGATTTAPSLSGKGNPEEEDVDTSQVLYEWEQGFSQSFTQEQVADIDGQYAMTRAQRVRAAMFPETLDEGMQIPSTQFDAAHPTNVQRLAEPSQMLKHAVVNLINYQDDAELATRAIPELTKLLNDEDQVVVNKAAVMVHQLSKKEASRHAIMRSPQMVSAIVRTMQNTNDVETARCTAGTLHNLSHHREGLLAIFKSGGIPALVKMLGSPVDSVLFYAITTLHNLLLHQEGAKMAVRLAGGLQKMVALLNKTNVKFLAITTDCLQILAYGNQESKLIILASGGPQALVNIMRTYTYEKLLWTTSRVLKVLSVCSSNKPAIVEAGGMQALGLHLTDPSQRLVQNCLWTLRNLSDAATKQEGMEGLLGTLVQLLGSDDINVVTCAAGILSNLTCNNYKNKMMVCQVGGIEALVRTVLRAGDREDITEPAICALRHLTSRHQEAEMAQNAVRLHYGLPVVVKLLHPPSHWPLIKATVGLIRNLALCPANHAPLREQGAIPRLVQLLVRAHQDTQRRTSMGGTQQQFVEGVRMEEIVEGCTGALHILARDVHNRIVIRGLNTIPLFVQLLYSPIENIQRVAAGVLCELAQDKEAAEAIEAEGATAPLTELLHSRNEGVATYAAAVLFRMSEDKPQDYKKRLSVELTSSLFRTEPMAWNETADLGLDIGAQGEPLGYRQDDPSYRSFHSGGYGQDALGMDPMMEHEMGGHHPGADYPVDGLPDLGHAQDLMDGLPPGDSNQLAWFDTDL
procedure-summary: cell-based or functional assay
Starred links: 1 amine or outer side, 2 acyl side, 3 side chain; linkers in the order of their positions; H or OH if unused. Positions of bridges follow the written chain, without caps; N, C: chain ends. Non-standard residues stand in square brackets, D forms with d. Primed or numbered codes have the meaning given here. PyrS2(3) = (S)-3-amino-1-((pent-4-en-1-yloxy)carbonyl)pyrrolidine-3-carboxylic acid, stapling residue, C=CCCCOC(=O)N1CC[C@@](N[*:1])(C(=O)[*:2])C1; B5(18) = 2,2-bis(4-pentenyl)glycine (2-amino-2-(pent-4-en-1-yl)hept-6-enoic acid), stitching residue, C=CCCCC(CCCC=C)(N[*:1])C(=O)[*:2]; TfeGA = (S)-2-amino-3-((carboxymethyl)(2,2,2-trifluoroethyl)amino)propanoic acid, O=C([C@H](CN(CC(=O)[*:3])CC(F)(F)F)N[*:1])[*:2]; HypEs5 = (2R,4S)-4-(pent-4-enoyloxy)pyrrolidine-2-carboxylic acid, C=CCCC(=O)O[C@H]1C[C@H](C(=O)[*:2])N([*:1])C1; GAbu = (S)-2-amino-4-((carboxymethyl)amino)butanoic acid, O=C([C@H](CCNCC(=O)[*:3])N[*:1])[*:2]; Phe(3-COOH) = N[C@@H](Cc1cccc(C(=O)O)c1)C(=O)O; Phe(2-Cl) = N[C@@H](Cc1ccccc1Cl)C(=O)O; Bta = N[C@@H](Cc1csc2ccccc12)C(=O)O; αAllylPro = C=CC[C@@]1(C(=O)O)CCCN1; tBuAla = CC(C)(C)C[C@H](N)C(=O)O; 3Thi = N[C@@H](Cc1ccsc1)C(=O)O

{"binder": "Ac-[αAllylPro]D[tBuAla][B5(18)]D[Phe(3-COOH)]AAFL[PyrS2(3)][Phe(2-Cl)][Bta]-NH2 (staple 1-4, 4-11) [I-1852]", "value-reported": "4.9 µM"}
{"binder": "Ac-[HypEs5]D[tBuAla][B5(18)]D[TfeGA]AAFT[PyrS2(3)][Phe(2-Cl)][Bta]Q-NH2 (staple 1-4, 4-11) [I-1846]", "value-reported": "29.8 µM"}

Parameters: items (list). Returns: NanoBRET Abs IC50 for each item.
1. Ac-[HypEs5]D[tBuAla][B5(18)]D[Phe(3-COOH)]AAFL[PyrS2(3)][Phe(2-Cl)][Bta]Q-NH2 (staple 1-4, 4-11) [I-1847]
2. Ac-[αAllylPro]D[tBuAla][B5(18)]D[Phe(3-COOH)]AAFA[PyrS2(3)][Phe(2-Cl)][Bta]S-NH2 (staple 1-4, 4-11) [I-1849]
3. Ac-[αAllylPro]D[tBuAla][B5(18)]D[Phe(3-COOH)]AAFL[PyrS2(3)][Phe(2-Cl)][Bta]A-NH2 (staple 1-4, 4-11) [I-1851]
4. Ac-[αAllylPro]D[tBuAla][B5(18)]D[GAbu]AAFL[PyrS2(3)][3Thi][Bta]Q-NH2 (staple 1-4, 4-11) [I-1841]

Result:
1. 26.2 µM
2. 8.8 µM
3. 3.8 µM
4. > 20 µM
